meta.source: the RNAGym collection of RNA variant scans (doi:10.1073/pnas.2313332121)

Listed variants paired with reported polymerase ribozyme fitness (log ratio)
B1: TPR 5TU (parent)
chain: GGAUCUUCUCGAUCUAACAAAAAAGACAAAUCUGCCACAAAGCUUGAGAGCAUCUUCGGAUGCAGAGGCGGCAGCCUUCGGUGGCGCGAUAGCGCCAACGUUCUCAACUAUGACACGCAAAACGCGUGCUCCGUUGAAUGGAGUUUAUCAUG

Variants of: B1
Assay: polymerase ribozyme fitness, log enrichment relative to wild type (log ratio); higher = more active; in vitro selection for triplet polymerase activity
Fewer inactive variants are shown than the library holds.

A20U A40C G94A A115U A119C = -3.89

Q: Query: polymerase ribozyme fitness (log ratio); subject: A12U U15G A39U G86U U102G C116U
Result: ≤ -4.2

Q: polymerase ribozyme fitness (log ratio) lookup needed for C10G C38U G50A U90A U127C G128U U145A , thanks.
Result: ≤ -4.2

Q: # polymerase ribozyme fitness (log ratio) lookup, item A21U C27G C93U A138C A147C
Result: ≤ -4.2

Q: GET /values?readout=polymerase ribozyme fitness (log ratio)&item= C43A U61A U127C C132U U145G
Result: ≤ -4.2

Q: Request the reported polymerase ribozyme fitness (log ratio) associated with A119U A121G U135C U146A A150G
Result: -3.77

Q: Could you share which polymerase ribozyme fitness (log ratio) value was measured for C87G C105A ?
Result: ≤ -4.2

Q: Any idea what its polymerase ribozyme fitness (log ratio) is? The variant is A12U A17C A22C A142C
Result: -2.44

Q: Give the measured polymerase ribozyme fitness (log ratio) of A21U C43U C99G A120G G126U .
Result: ≤ -4.2

Q: Look up polymerase ribozyme fitness (log ratio): A91U G124U C131G
Result: ≤ -4.2

Q: Which polymerase ribozyme fitness (log ratio) value is on record for A49C U55G U61A C96A U111G A119U U148C ?
Result: ≤ -4.2

Q: Suppose we examine the variant G84A G88A U148G ; what polymerase ribozyme fitness (log ratio) value has been reported?
Result: ≤ -4.2

Q: Quick check: polymerase ribozyme fitness (log ratio) of G11U C14G A20G C27G A52U G80A A120U G141U U144G ?
Result: ≤ -4.2

Q: Look up polymerase ribozyme fitness (log ratio) for this variant: C76A A137G
Result: -1.07

Q: Name the reported polymerase ribozyme fitness (log ratio) value associated with the variant A3C C51G U55G C75U C118A
Result: ≤ -4.2

Q: So what does the record say about polymerase ribozyme fitness (log ratio) for A30G C85U U134C ?
Result: -3.93

Q: Suppose we examine the variant C51U U53A A110C C116A ; what polymerase ribozyme fitness (log ratio) value has been reported?
Result: ≤ -4.2

Q: Query (variant): C75A C87A G88A ; field requested: polymerase ribozyme fitness (log ratio)
Result: ≤ -4.2
